- Tested on: NCI-H211 tumor spheroids, viability percent test/control
- assay info: Anticancer human tumor NCI-H211 cell line growth inhibition; active = viability on the fitted dose curve at most 10% of control; inactive = the rest;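 note: spheroids exposed to agents for seven days before readout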
- experimental context: second compound 30 pM; first compound 1 µM; spheroids with HUVEC and MSC
# output must be one of active, inactive

Dear colleague, could you share the recorded outcome for [2H]c1nc(C)nc([2H])c1-c1cc(NC[C@@H](C)c2cccc3c(C(=O)NC)ccnc23)ncn1 + COc1cc2c(cc1O)CCNC21CSC2c3c(OC(C)=O)c(C)c4c(c3C(COC1=O)N1C(O)C3Cc5cc(C)c(OC)c(O)c5C(C21)N3C)OCO4 when you have a moment?
inactive

Dear colleague, could you share the recorded outcome for Cc1cc(C)c(CNC(=O)c2cc(-c3ccc(CN4CCOCC4)cc3)cc3c2cnn3C2CCCC2)c(=O)[nH]1 + COc1cc2c(cc1O)CCNC21CSC2c3c(OC(C)=O)c(C)c4c(c3C(COC1=O)N1C(O)C3Cc5cc(C)c(OC)c(O)c5C(C21)N3C)OCO4 when you have a moment?
inactive

Lab log entry: CC(C)n1c(=O)n(C)c2cnc3cc(F)c(-c4ccc(OCCCN5CCCCC5)nc4)cc3c21 + COc1cc2c(cc1O)CCNC21CSC2c3c(OC(C)=O)c(C)c4c(c3C(COC1=O)N1C(O)C3Cc5cc(C)c(OC)c(O)c5C(C21)N3C)OCO4 — outcome as called in the assay?
inactive

# fetch the recorded call for CC1COCCN1c1cc(-c2ccnn2C)c2ccnc(-c3ccn[nH]3)c2n1 (stereo unspecified) + COc1cc2c(cc1O)CCNC21CSC2c3c(OC(C)=O)c(C)c4c(c3C(COC1=O)N1C(O)C3Cc5cc(C)c(OC)c(O)c5C(C21)N3C)OCO4 here
active

Please share the test call associated with COc1ccc([C@@H](O)c2cc(-c3ncnc4cc(N5CCOCC5)ccc34)c(F)cc2Cl)nn1 + COc1cc2c(cc1O)CCNC21CSC2c3c(OC(C)=O)c(C)c4c(c3C(COC1=O)N1C(O)C3Cc5cc(C)c(OC)c(O)c5C(C21)N3C)OCO4 .
inactive

How did this test come out for COc1cc(C)[nH]c(=O)c1CN1CCc2c(Cl)cc(C(OC)C3COC3)c(Cl)c2C1=O (stereo unspecified) + COc1cc2c(cc1O)CCNC21CSC2c3c(OC(C)=O)c(C)c4c(c3C(COC1=O)N1C(O)C3Cc5cc(C)c(OC)c(O)c5C(C21)N3C)OCO4 ?
inactive

====

- Tested on: NCI-H211 tumor spheroids, viability percent test/control
- assay info: Anticancer human tumor NCI-H211 cell line growth inhibition;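 note: spheroids exposed to agents for seven days before readout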
- experimental context: second compound 0.3 µM; first compound 0.0316 µM; stronger effect = lower value; spheroids with HUVEC and MSC
Sorting guide: entries reporting viability, T/C beneath 1% go in the t pile, the rest go in the f pile.

I'd appreciate it if you could check whether [2H]c1nc(C)nc([2H])c1-c1cc(NC[C@@H](C)c2cccc3c(C(=O)NC)ccnc23)ncn1 + CC[C@@]1(O)C(=O)OCc2c1cc1n(c2=O)Cc2cc3c(CN(C)C)c(O)ccc3nc2-1 has viability, T/C smaller than 1%.
f

Consider CC(C)n1c(=O)n(C)c2cnc3cc(F)c(-c4ccc(OCCCN5CCCCC5)nc4)cc3c21 + CC[C@@]1(O)C(=O)OCc2c1cc1n(c2=O)Cc2cc3c(CN(C)C)c(O)ccc3nc2-1 . Does its viability, T/C lie strictly below 1%?
f

Hello, I'm reviewing records and need to know if viability, T/C of Cc1cc(C)c(CNC(=O)c2cc(-c3ccc(CN4CCOCC4)cc3)cc3c2cnn3C2CCCC2)c(=O)[nH]1 + CC[C@@]1(O)C(=O)OCc2c1cc1n(c2=O)Cc2cc3c(CN(C)C)c(O)ccc3nc2-1 is below 1%. Could you check?
f

Below 1% on viability, T/C? Entry COc1cc(C)[nH]c(=O)c1CN1CCc2c(Cl)cc(C(OC)C3COC3)c(Cl)c2C1=O (stereo unspecified) + CC[C@@]1(O)C(=O)OCc2c1cc1n(c2=O)Cc2cc3c(CN(C)C)c(O)ccc3nc2-1
f

I wonder whether COc1ccc([C@@H](O)c2cc(-c3ncnc4cc(N5CCOCC5)ccc34)c(F)cc2Cl)nn1 + CC[C@@]1(O)C(=O)OCc2c1cc1n(c2=O)Cc2cc3c(CN(C)C)c(O)ccc3nc2-1 has viability, T/C below 1%. Can you tell?
t

====

- Tested on: NCI-H211 tumor spheroids, viability percent test/control
- assay info: Anticancer human tumor NCI-H211 cell line growth inhibition;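 note: spheroids exposed to agents for seven days before readout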
- experimental context: second compound 0.0949 µM; first compound 1 µM; stronger effect = lower value; spheroids with HUVEC and MSC
I'd be grateful if you could share measured viability, T/C for these entries.
API: value field is a number in %; no unit string.

Hi! What's the reported viability, T/C for COc1cc(C)[nH]c(=O)c1CN1CCc2c(Cl)cc(C(OC)C3COC3)c(Cl)c2C1=O (stereo unspecified) + CC[C@@]1(O)C(=O)OCc2c1cc1n(c2=O)Cc2cc3c(CN(C)C)c(O)ccc3nc2-1 on NCI-H211 tumor spheroids, viability percent test/control?
1.41

Lab note: need viability, T/C for [2H]c1nc(C)nc([2H])c1-c1cc(NC[C@@H](C)c2cccc3c(C(=O)NC)ccnc23)ncn1 + CC[C@@]1(O)C(=O)OCc2c1cc1n(c2=O)Cc2cc3c(CN(C)C)c(O)ccc3nc2-1 on NCI-H211 tumor spheroids, viability percent test/control, anyone have it?
0.83

Kindly state the measured viability, T/C obtained for COc1ccc([C@@H](O)c2cc(-c3ncnc4cc(N5CCOCC5)ccc34)c(F)cc2Cl)nn1 + CC[C@@]1(O)C(=O)OCc2c1cc1n(c2=O)Cc2cc3c(CN(C)C)c(O)ccc3nc2-1 with NCI-H211 tumor spheroids, viability percent test/control.
1.43

Test system NCI-H211 tumor spheroids, viability percent test/control; read-out viability, T/C; what value for Cc1cc(C)c(CNC(=O)c2cc(-c3ccc(CN4CCOCC4)cc3)cc3c2cnn3C2CCCC2)c(=O)[nH]1 + CC[C@@]1(O)C(=O)OCc2c1cc1n(c2=O)Cc2cc3c(CN(C)C)c(O)ccc3nc2-1 ?
1.17

Request - read-out viability, T/C | tested on NCI-H211 tumor spheroids, viability percent test/control | molecule CC(C)n1c(=O)n(C)c2cnc3cc(F)c(-c4ccc(OCCCN5CCCCC5)nc4)cc3c21 + CC[C@@]1(O)C(=O)OCc2c1cc1n(c2=O)Cc2cc3c(CN(C)C)c(O)ccc3nc2-1
0.94

Please state recorded viability, T/C (tested on NCI-H211 tumor spheroids, viability percent test/control) of CC1COCCN1c1cc(-c2ccnn2C)c2ccnc(-c3ccn[nH]3)c2n1 (stereo unspecified) + CC[C@@]1(O)C(=O)OCc2c1cc1n(c2=O)Cc2cc3c(CN(C)C)c(O)ccc3nc2-1
0.52

====

- System: NCI-H211 tumor spheroids, viability percent test/control
- assay info: Anticancer human tumor NCI-H211 cell line growth inhibition;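 note: spheroids exposed to agents for seven days before readout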
- experimental context: second compound 0.00949 µM; first compound 0.0316 µM; stronger effect = lower value; spheroids with HUVEC and MSC
property measured: viability, T/C (%)
Supply the numeric figure in %, leaving out any unit text.

Name the recorded viability, T/C for CC1COCCN1c1cc(-c2ccnn2C)c2ccnc(-c3ccn[nH]3)c2n1 (stereo unspecified) + CC[C@@]1(O)C(=O)OCc2c1cc1n(c2=O)Cc2cc3c(CN(C)C)c(O)ccc3nc2-1 .
1.86

Requested read-out: viability, T/C. Entry: Cc1cc(C)c(CNC(=O)c2cc(-c3ccc(CN4CCOCC4)cc3)cc3c2cnn3C2CCCC2)c(=O)[nH]1 + CC[C@@]1(O)C(=O)OCc2c1cc1n(c2=O)Cc2cc3c(CN(C)C)c(O)ccc3nc2-1
10.6

Which viability, T/C value belongs to COc1cc(C)[nH]c(=O)c1CN1CCc2c(Cl)cc(C(OC)C3COC3)c(Cl)c2C1=O (stereo unspecified) + CC[C@@]1(O)C(=O)OCc2c1cc1n(c2=O)Cc2cc3c(CN(C)C)c(O)ccc3nc2-1 ?
61.2

Given the entry CC(C)n1c(=O)n(C)c2cnc3cc(F)c(-c4ccc(OCCCN5CCCCC5)nc4)cc3c21 + CC[C@@]1(O)C(=O)OCc2c1cc1n(c2=O)Cc2cc3c(CN(C)C)c(O)ccc3nc2-1 , report its measured viability, T/C.
0.98

Give its viability, T/C value. Item: [2H]c1nc(C)nc([2H])c1-c1cc(NC[C@@H](C)c2cccc3c(C(=O)NC)ccnc23)ncn1 + CC[C@@]1(O)C(=O)OCc2c1cc1n(c2=O)Cc2cc3c(CN(C)C)c(O)ccc3nc2-1
4.11

Endpoint output: viability, T/C of COc1ccc([C@@H](O)c2cc(-c3ncnc4cc(N5CCOCC5)ccc34)c(F)cc2Cl)nn1 + CC[C@@]1(O)C(=O)OCc2c1cc1n(c2=O)Cc2cc3c(CN(C)C)c(O)ccc3nc2-1 . Value?
18.5
